Test system: CP335
procedure-summary: qHTS profiling for inhibitors of Plasmodium falciparum proliferation (AID 504749); also: nearly all actives have a fitted effect of over 60% in size
stated-conditions: P. falciparum in erythrocytes, SYBR Green DNA, 72 h; series mostly up to 28.7 µM
Records with an inconclusive call do not appear. The source made the active and inactive calls. Calls follow the shape of the dose curve; as a rule, active = well fitted inhibition curve with a large enough effect; inconclusive = small, poorly fitted or top-dose-only effect; inactive = flat fitted curve, though single readings scatter.
Outcomes: T for active, F for inactive

structure-as-smiles: O=C1NCN(c2ccccc2)C12CCN(CCCC(c1ccc(F)cc1)c1ccc(F)cc1)CC2
cat: T
--
structure-as-smiles: Cc1ccc(Cl)c(Nc2ccccc2C(=O)O)c1Cl
cat: F
--
structure-as-smiles: NC(=Nc1ccccc1)Nc1ccccc1
cat: F
--
structure-as-smiles: NC(=O)c1cn(Cc2c(F)cccc2F)nn1
cat: F
--
structure-as-smiles: CCN(CC)CCCN(c1ccccc1)C1Cc2ccccc2C1
cat: T
